molecular target: Suppressor of tumorigenicity 14 protein (Homo sapiens); assay: Inhibition of human matriptase measured after 15 mins at pH 8 by fluorescence assay; details: read-out: IC50
pIC50: −log10 of the molar value.
outcome-measure: pIC50

Q: Param item = Cc1ccc(C(=O)n2nc(-c3cccnc3)nc2N)cc1 ; retrieve measured pIC50.
Result: 6.24

Q: And for CSc1nc(-c2ccc(Cl)cc2)nn1C(=O)c1ccccc1 ?
Result: 6.38

* * *

Attribute: pIC50
target: Suppressor of tumorigenicity 14 protein (Homo sapiens, UniProt Q9Y5Y6); assay: Inhibition of human matriptase measured after 15 mins at pH 8 by fluorescence assay; details: read-out: IC50
Sequence (Q9Y5Y6 whole entry): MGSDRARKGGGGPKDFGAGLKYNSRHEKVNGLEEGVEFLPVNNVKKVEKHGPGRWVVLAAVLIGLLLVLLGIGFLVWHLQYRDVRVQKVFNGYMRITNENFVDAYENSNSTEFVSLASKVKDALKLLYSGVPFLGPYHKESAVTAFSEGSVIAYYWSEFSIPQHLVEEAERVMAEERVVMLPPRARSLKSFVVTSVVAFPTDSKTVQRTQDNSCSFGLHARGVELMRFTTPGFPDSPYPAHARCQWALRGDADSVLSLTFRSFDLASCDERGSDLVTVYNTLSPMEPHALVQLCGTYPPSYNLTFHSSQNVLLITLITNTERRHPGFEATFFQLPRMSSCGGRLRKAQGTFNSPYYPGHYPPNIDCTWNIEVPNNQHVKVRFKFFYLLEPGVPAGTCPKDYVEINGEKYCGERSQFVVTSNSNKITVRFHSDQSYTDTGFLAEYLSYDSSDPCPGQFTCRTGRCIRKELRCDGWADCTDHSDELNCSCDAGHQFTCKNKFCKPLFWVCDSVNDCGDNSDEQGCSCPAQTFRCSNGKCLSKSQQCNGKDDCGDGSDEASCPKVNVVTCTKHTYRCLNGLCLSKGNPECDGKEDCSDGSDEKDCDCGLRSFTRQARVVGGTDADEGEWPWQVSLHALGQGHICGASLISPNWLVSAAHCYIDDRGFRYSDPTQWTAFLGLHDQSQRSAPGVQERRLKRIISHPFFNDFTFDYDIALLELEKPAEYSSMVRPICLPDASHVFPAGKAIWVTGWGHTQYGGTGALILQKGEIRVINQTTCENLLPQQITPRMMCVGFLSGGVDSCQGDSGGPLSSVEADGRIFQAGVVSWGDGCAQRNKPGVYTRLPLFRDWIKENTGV
pIC50: −log10 of the molar value.

Below, 2 compounds whose answers are already recorded.
Q: Param item = Nc1nc(-c2cccnc2)nn1C(=O)c1ccc(Cl)cc1 ; retrieve measured pIC50.
Result: < 4.52

Q: And for COc1ccc(C(=O)n2cnnc2N)cc1 ?
Result: < 4.52

Shifting focus to the compound that follows.
Q: Param item = COc1ccc(C(=O)n2nc(-c3ccccc3)nc2N)cc1OC ; retrieve measured pIC50.
Result: < 4.52

Measured values drawn from ChEMBL document CHEMBL2406906 for this set.
